Provide the recorded IC50 for the entries that follow.
- target_or_system: Cdk2/cyclin E (Homo sapiens, UniProt P24941)
- run_description: Biochemical kinase assay Cdk2/cyclin E
- run_parameters: Table 6
- Protocol: Enzymes: Cdc2/cyclin B was obtained from commercial sources. Cdk2/his-cyclin Eshort was expressed in Sf9 cells. Cdk2/cyclin A, cdk4/cyclin D1, and cdk6/cyclin D2 were expressed in Sf9 cells. Protein kinase A (catalytic subunit, from bovine heart) and protein kinase C (mixed isozymes from rat brain) were obtained from commercial sources. […] Cdk2/cyclin E, Cdk2/cyclin A, Cdk4/cyclin D1, and Cdk6/cyclin D2 activity was determined using a glutathione-sepharose capture assay. […]

Request the reported IC50 associated with Cc1cc(OCCn2cccn2)ccc1-c1[nH]nc2c1C(=O)c1c(NC(=O)NN3CCN(C)CC3)cccc1-2
< 100 nM

Return reported IC50; argument: O=C(Nc1cccc2c1C(=O)c1c(-c3ccc(CN4CCCC4)cc3)n[nH]c1-2)NN1CCOCC1
< 100 nM

So what does the record say about IC50 for CC(C)c1nn(-c2c(Cl)cc(S(N)(=O)=O)cc2Cl)c2nc(Cc3ccc(OCCN4CCOCC4)cc3)[nH]c(=O)c12 ?
< 10 nM

Form field: reported IC50 of Cc1cc(-c2[nH]nc3c2C(=O)c2c(NC(=O)NN4CCOCC4)cccc2-3)ccc1OCCN1CCCC1
< 100 nM

Query (molecule): O=C(Nc1cccc2c1C(=O)c1c(-c3ccc(CN4CCC[C@H]4CO)cc3)n[nH]c1-2)NN1CCOCC1 ; field requested: IC50
< 100 nM

Fill in the blank: the reported IC50 of CC(C)N1CCN(CCCOc2ccc(-c3[nH]nc4c3C(=O)c3c(NC(=O)NN5CCOCC5)cccc3-4)cc2)CC1 is ____.
< 10 nM
